Below, each entry is listed alongside its reported Ki.
- target_system: glucocorticoid receptors (endogenous) in SW1353/MMTV-5 cells (Homo sapiens)
- Construct: contains endogenous glucocorticoid receptors; endogenous in cells
- Sequence (P04150 whole entry): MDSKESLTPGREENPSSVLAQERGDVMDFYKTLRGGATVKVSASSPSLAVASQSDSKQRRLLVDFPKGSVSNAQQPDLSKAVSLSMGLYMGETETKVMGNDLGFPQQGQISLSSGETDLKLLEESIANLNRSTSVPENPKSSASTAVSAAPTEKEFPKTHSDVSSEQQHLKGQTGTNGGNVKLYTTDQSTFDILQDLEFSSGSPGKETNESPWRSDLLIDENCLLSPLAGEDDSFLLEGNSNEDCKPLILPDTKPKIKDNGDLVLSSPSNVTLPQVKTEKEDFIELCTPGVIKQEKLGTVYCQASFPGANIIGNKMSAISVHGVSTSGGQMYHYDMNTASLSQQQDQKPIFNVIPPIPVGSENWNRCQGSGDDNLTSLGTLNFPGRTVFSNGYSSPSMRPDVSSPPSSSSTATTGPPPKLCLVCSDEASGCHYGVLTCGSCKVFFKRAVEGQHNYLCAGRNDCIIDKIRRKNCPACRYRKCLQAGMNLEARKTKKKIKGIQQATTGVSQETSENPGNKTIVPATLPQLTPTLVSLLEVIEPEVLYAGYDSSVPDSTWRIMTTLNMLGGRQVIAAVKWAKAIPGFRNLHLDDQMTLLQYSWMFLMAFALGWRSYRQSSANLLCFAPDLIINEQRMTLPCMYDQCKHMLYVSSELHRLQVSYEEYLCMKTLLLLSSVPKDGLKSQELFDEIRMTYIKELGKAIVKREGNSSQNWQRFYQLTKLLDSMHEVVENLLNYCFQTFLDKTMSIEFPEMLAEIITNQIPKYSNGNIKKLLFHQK
- experiment: GR functional assay using SW1353/MMTV-5 cells (MMTV-GRE luciferase reporter)

Completed entries (count: 2):
molecule	target_system	Ki
O=c1[nH]c(=O)c(Cc2cccc(Cl)c2Cl)c([C@H]2CC[C@H](c3ccccc3)CC2)[nH]1 [Compound 3d]	glucocorticoid receptors (endogenous) in SW1353/MMTV-5 cells (Homo sapiens)	< 50 nM
COCCn1c(=O)[nH]c([C@H]2CC[C@H](c3ccccc3)CC2)c(Cc2cccc(C(F)(F)F)c2)c1=O [Compound 13g]	glucocorticoid receptors (endogenous) in SW1353/MMTV-5 cells (Homo sapiens)	> 100 nM

Identify the measured Ki of COc1ccccc1Cc1c(=O)[nH]c(=O)[nH]c1[C@H]1CC[C@H](c2ccccc2)CC1 [Compound 3u] for glucocorticoid receptors (endogenous) in SW1353/MMTV-5 cells (Homo sapiens). 50 to 100 nM
